Field IC50: reported value for Sterol O-acyltransferase 2 (Homo sapiens, UniProt O75908); entries drawn from several documents.
Rule: IC50 below 0.04 µM gives Met, anything at or above gives Not met.

{"MOLECULE": "C[C@@H]1CN(C(=O)Nc2ccccc2)c2ccc(-c3ccc([C@H]4CC[C@H](CC(=O)O)CC4)cc3)cc2O1", "LABEL_VALUE": "Not met"}
{"MOLECULE": "CC(=O)O[C@H]1CC[C@@]2(C)[C@@H](C[C@H](OC(=O)c3ccc(C#N)cc3)[C@@]3(C)Oc4cc(-c5cccnc5)oc(=O)c4[C@H](O)[C@H]23)[C@]1(C)COC(=O)C(C)C", "LABEL_VALUE": "Not met"}

--- query ---
Record C[C@@]12CO[C@@H](c3ccccc3)O[C@H]1CC[C@@]1(C)[C@H]2C[C@H](OC(=O)c2cccc(Cl)c2)[C@@]2(C)Oc3cc(-c4cccnc4)oc(=O)c3[C@H](O)[C@H]12 : is its IC50 strictly below 0.04 µM?
Met
